Experiment: CCTE_Shafer_MEA_dev_per_burst_interspike_interval: CCTE's Neural Network Formation Assay for Burst Interspike Interval, Shafer Lab (AID 2284044);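 note: mean spike spacing inside bursts as AUC over recordings on days 5 7 9 12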
The source made the active and inactive calls. Rule for the calls: active = hit-call score of the fitted dose curve at least 0.9, where 1 is the maximum; inactive = score below 0.9.
Tick one outcome: active, inactive

Examples from the recorded data:
Task: Kindly provide the recorded test outcome for the following compound: CNCc1ccc(NC(=O)c2c[nH]c3c2C(=O)CCC3)cc1
Result: inactive

Task: Another compound to check: CCC(C)(C)C(=O)O[C@H]1C[C@@H](C)C=C2C=C[C@H](C)[C@H](CC[C@@H]3C[C@@H](O)CC(=O)O3)[C@H]21
Result: inactive

Task: What about CC[C@H](C)C(=O)O[C@H]1C[C@@H](C)C=C2C=C[C@H](C)[C@H](CC[C@@H]3C[C@@H](O)CC(=O)O3)[C@H]21 ?
Result: active

Task: And O=C1CCC(N2C(=O)c3ccccc3C2=O)C(=O)N1 (stereo unspecified) ?
Result: inactive

Task: Entry Cn1c(=O)c2c(ncn2C)n(C)c1=O please
Result: inactive

# evaluate next
Task: Just curious, what result did COc1ccc(-n2nc(C(F)F)cc2-c2ccc(S(C)=O)cc2)cc1 (stereo unspecified) get here?
Result: inactive
